Property: IC50; scope: individual compounds
# TARGET_OR_TEST_SYSTEM: DRB1*1501 (Homo sapiens, UniProt P01903+P01911)
# Construct: made in house; host or cells: EBV-transformed homozygous human B cell lines, transfected fibroblasts or single-allele 721.221 transfectants
# ASSAY_REMARKS: biochemical
# Format: binding
# ASSAY_CONTEXT: read-out: IC50 nM to purified HLA DRB1*1501
Entry rule: numbers only, all in nM.

Look over these answered cases.
CC[C@H](C)[C@H](N)C(=O)N[C@@H](Cc1ccc(O)cc1)C(=O)N[C@@H](CCC(N)=O)C(=O)N[C@H](C(=O)N[C@@H](CC(C)C)C(=O)N[C@@H](CO)C(=O)N[C@H](C(=O)N[C@@H](Cc1ccc(O)cc1)C(=O)N[C@@H](CO)C(=O)N[C@H](C(=O)N[C@H](C(=O)N[C@@H](C)C(=O)N[C@@H](CO)C(=O)N[C@@H](CO)C(=O)N[C@@H](CC(C)C)C(=O)N[C@@H](C)C(=O)O)C(C)C)[C@@H](C)O)[C@@H](C)CC)[C@@H](C)CC	4.7
CC[C@H](C)[C@H](NC(=O)[C@@H](NC(=O)[C@H](CCCNC(=N)N)NC(=O)[C@H](CCC(N)=O)NC(=O)[C@@H](NC(=O)[C@@H](NC(=O)[C@H](CCSC)NC(=O)[C@H](CCCCN)NC(=O)[C@H](CCCCN)NC(=O)[C@@H](N)[C@@H](C)O)C(C)C)[C@@H](C)O)[C@@H](C)O)C(=O)NCC(=O)N[C@@H](CCCCN)C(=O)N[C@@H](CCCCN)C(=O)N[C@@H](CCCCN)C(=O)N[C@@H](CCC(N)=O)C(=O)O	9710

Shift focus to the following entry.
Dear colleague, I am looking for the recorded IC50 of the following compound: `CC[C@H](C)[C@H](NC(=O)[C@H](CCC(N)=O)NC(=O)[C@H](Cc1ccc(O)cc1)NC(=O)[C@H](CCC(=O)O)NC(=O)[C@H](CC(C)C)NC(=O)[C@@H](N)CC(N)=O)C(=O)NCC(=O)N[C@@H](Cc1ccc(O)cc1)C(=O)N[C@H](C(=O)N[C@@H](CS)C(=O)N[C@@H](CO)C(=O)NCC(=O)N[C@H](C(=O)N[C@@H](Cc1ccccc1)C(=O)NCC(=O)O)C(C)C)[C@@H](C)CC`
13
